Test system: Pichia kudriavzevii
testDetails: Antifungal activity against Candida krusei 397
Assay type: functional
Kindly supply the reported MIC values for the records listed here.
The answer is to be given in µg/mL; state only the numeric part.

Exam item: Name the recorded MIC for C[C@@H](c1cn(-c2ccc(Cl)cc2F)nn1)[C@](O)(Cn1cncn1)c1ccc(F)cc1F .
Marked response: 0.125

Exam item: Name the recorded MIC for C[C@@H](c1ncncc1F)[C@](O)(Cn1cncn1)c1ccc(F)cc1F [VORICONAZOLE] .
Marked response: 0.125

Exam item: Name the recorded MIC for CCC(C)n1ncn(-c2ccc(N3CCN(c4ccc(OCC5COC(Cn6cncn6)(c6ccc(Cl)cc6Cl)O5)cc4)CC3)cc2)c1=O (stereo not given) [ITRACONAZOLE] .
Marked response: 2

Exam item: Name the recorded MIC for OC(Cn1cncn1)(Cn1cncn1)c1ccc(F)cc1F [FLUCONAZOLE] .
Marked response: 2

Exam item: Name the recorded MIC for CC[C@@H]([C@H](C)O)n1ncn(-c2ccc(N3CCN(c4ccc(OC[C@@H]5CO[C@@](Cn6cncn6)(c6ccc(F)cc6F)C5)cc4)CC3)cc2)c1=O [POSACONAZOLE] .
Marked response: 2

* * *

Test system: Cryptococcus neoformans
testDetails: Antifungal activity against Cryptococcus neoformans H99 incubated for 72 hrs by microbroth dilution method
Type: functional
For each record, check the reported MIC: if it is below 0.5 µg/mL write MET, else write NOT MET.

Exam item: Strictly below 0.5 µg/mL in MIC? C[C@@H](c1cn(-c2cc(F)c(F)c(F)c2)nn1)[C@](O)(Cn1cncn1)c1ccc(F)cc1F
Marked response: MET

Exam item: Strictly below 0.5 µg/mL in MIC? C[C@@H](c1cn(-c2ccc(S(C)(=O)=O)cc2)nn1)[C@](O)(Cn1cncn1)c1ccc(F)cc1F
Marked response: NOT MET

Exam item: Strictly below 0.5 µg/mL in MIC? C[C@@H](c1cn(-c2cccc(F)c2)nn1)[C@](O)(Cn1cncn1)c1ccc(F)cc1F
Marked response: MET

Exam item: Strictly below 0.5 µg/mL in MIC? C[C@@H](c1cn(-c2cncnc2)nn1)[C@](O)(Cn1cncn1)c1ccc(F)cc1F
Marked response: NOT MET

Exam item: Strictly below 0.5 µg/mL in MIC? C[C@@H](c1ncncc1F)[C@](O)(Cn1cncn1)c1ccc(F)cc1F [VORICONAZOLE]
Marked response: MET

Exam item: Strictly below 0.5 µg/mL in MIC? C[C@@H](c1cn(-c2ccc(OC(F)(F)F)cc2)nn1)[C@](O)(Cn1cncn1)c1ccc(F)cc1F
Marked response: MET

Exam item: Strictly below 0.5 µg/mL in MIC? C[C@@H](c1cn(-c2ccc(C#N)cc2)nn1)[C@](O)(Cn1cncn1)c1ccc(F)cc1F
Marked response: MET

* * *

Test system: Nakaseomyces glabratus
testDetails: Antifungal activity against Candida glabrata 537
Type: functional
measuredQuantity: MIC
Remember to follow the number with its unit.

Exam item: Name the recorded MIC for C[C@@H](c1cn(-c2cc(F)ccc2F)nn1)[C@](O)(Cn1cncn1)c1ccc(F)cc1F .
Marked response: 0.0625 µg/mL

Exam item: Name the recorded MIC for C[C@@H](c1cn(-c2ccc(OC(F)(F)F)cc2)nn1)[C@](O)(Cn1cncn1)c1ccc(F)cc1F .
Marked response: 0.125 µg/mL

Exam item: Name the recorded MIC for OC(Cn1cncn1)(Cn1cncn1)c1ccc(F)cc1F [FLUCONAZOLE] .
Marked response: 2 µg/mL

Exam item: Name the recorded MIC for C[C@@H](c1cn(-c2ccc(F)cc2F)nn1)[C@](O)(Cn1cncn1)c1ccc(F)cc1F .
Marked response: 0.0313 µg/mL

Exam item: Name the recorded MIC for C[C@@H](c1cn(-c2ccc(Cl)cc2F)nn1)[C@](O)(Cn1cncn1)c1ccc(F)cc1F .
Marked response: 0.0625 µg/mL

Exam item: Name the recorded MIC for C[C@@H](c1ncncc1F)[C@](O)(Cn1cncn1)c1ccc(F)cc1F [VORICONAZOLE] .
Marked response: 0.125 µg/mL
